System: ragweed (common ragweed, Ambrosia artemisiifolia)
Assay: Test C preemergence, ragweed
Assay type: in vivo
Details: 31 g ai/ha Preemergence; 0 is no effect, 100 is complete control
quantity.kind: Plant response rating (0 to 100 scale), Ragweed

stdin: // Input: Cc1cc(C)c(N2CCC(OC3CC3)C2=O)cc1NS(=O)(=O)C(F)(F)F (single isomer, unassigned) [Compound 29] . Output its Plant response rating (0 to 100 scale), Ragweed only.
stdout: 80

stdin: // Input: CC#CCOC1CCN(c2cc(NS(=O)(=O)C(F)(F)F)c(C)cc2C)C1=O (stereo not drawn) [Compound 60] . Output its Plant response rating (0 to 100 scale), Ragweed only.
stdout: 90

stdin: // Input: CC(=O)N(c1cc(N2CCC(OC3CC3)C2=O)c(C)cc1Cl)S(=O)(=O)C(F)(F)F (stereo not drawn) [Compound 38] . Output its Plant response rating (0 to 100 scale), Ragweed only.
stdout: 70

stdin: // Input: Cc1cc(C)c(N2CCC(O)C2=O)cc1NS(=O)(=O)C(F)(F)F (stereo not drawn) [Compound 14] . Output its Plant response rating (0 to 100 scale), Ragweed only.
stdout: 20

stdin: // Input: Cc1cc(C)c(N(COC(=O)C(C)(C)C)S(=O)(=O)C(F)(F)F)cc1N1CCC(OCC2CC2(F)F)C1=O (stereo not drawn) [Compound 54] . Output its Plant response rating (0 to 100 scale), Ragweed only.
stdout: 0

stdin: // Input: Cc1cc(C)c(N2CCC(OCc3ccccc3)C2=O)cc1NS(=O)(=O)C(F)(F)F (stereo not drawn) [Compound 61] . Output its Plant response rating (0 to 100 scale), Ragweed only.
stdout: 0

stdin: // Input: Cc1cc(C)c(N(C(=O)OC(C)C)S(=O)(=O)C(F)(F)F)cc1N1CCC(OC2CC2)C1=O (stereo not drawn) [Compound 18] . Output its Plant response rating (0 to 100 scale), Ragweed only.
stdout: 0

stdin: // Input: COC(=O)N(c1cc(N2CCC(OC3CC3)C2=O)c(C)cc1Cl)S(=O)(=O)C(F)(F)F (stereo not drawn) [Compound 40] . Output its Plant response rating (0 to 100 scale), Ragweed only.
stdout: 70

stdin: // Input: Cc1cc(C)c(N2CCC(OCC3CCC3(F)F)C2=O)cc1NS(=O)(=O)C(F)(F)F (stereo not drawn) [Compound 52] . Output its Plant response rating (0 to 100 scale), Ragweed only.
stdout: 0

stdin: // Input: Cc1cc(C)c(N2CCC(OC3CC3)C2=O)cc1NS(=O)(=O)C(F)(F)F (single isomer, unassigned) [Compound 30] . Output its Plant response rating (0 to 100 scale), Ragweed only.
stdout: 100

stdin: // Input: Cc1cc(Cl)c(N(COC(=O)C(C)(C)C)S(=O)(=O)C(F)(F)F)cc1N1CCC(OC2CC2)C1=O (stereo not drawn) [Compound 33] . Output its Plant response rating (0 to 100 scale), Ragweed only.
stdout: 30

stdin: // Input: Cc1c(NS(=O)(=O)C(F)(F)F)cc(N2CCC(OC3CCC3)C2=O)c(C)c1C (stereo not drawn) [Compound 45] . Output its Plant response rating (0 to 100 scale), Ragweed only.
stdout: 80

stdin: // Input: Cc1c(N2CCC(OC3CC3)C2=O)cc(N(COC(=O)C(C)(C)C)S(=O)(=O)C(F)(F)F)c(C)c1F (stereo not drawn) [Compound 23] . Output its Plant response rating (0 to 100 scale), Ragweed only.
stdout: 30

stdin: // Input: Cc1c(N2CCC(OC3CCC3)C2=O)cc(N(COC(=O)C(C)(C)C)S(=O)(=O)C(F)(F)F)c(C)c1F (stereo not drawn) [Compound 28] . Output its Plant response rating (0 to 100 scale), Ragweed only.
stdout: 40

stdin: // Input: Cc1c(NS(=O)(=O)C(F)(F)F)cc(N2CCC(OCC3CCC3)C2=O)c(C)c1F (stereo not drawn) [Compound 64] . Output its Plant response rating (0 to 100 scale), Ragweed only.
stdout: 90

* * *

Test system: ryegrass, Italian (Italian ryegrass, Lolium multiflorum)
Assay: Test C postemergence, Italian ryegrass
Assay type: in vivo
Conditions: 31 g ai/ha Postemergence; visual injury, 0 to 100 scale (0 no effect, 100 complete control)
Answer each item with its documented Ryegrass, Italian plant response rating.

stdin: // Input: Cc1cc(C)c(N(COC(=O)C(C)(C)C)S(=O)(=O)C(F)(F)F)cc1N1CCC(OCC2CC2(F)F)C1=O (stereo not shown) . Output its Ryegrass, Italian plant response rating only.
stdout: 60

stdin: // Input: Cc1cc(C)c(N2CCC(OC3COC3)C2=O)cc1NS(=O)(=O)C(F)(F)F (stereo not shown) . Output its Ryegrass, Italian plant response rating only.
stdout: 40

stdin: // Input: "CCO/N=C1\CCN(c2cc(NS(=O)(=O)C(F)(F)F)c(C)cc2C)C1=O" . Output its Ryegrass, Italian plant response rating only.
stdout: 70

stdin: // Input: Cc1cc(C)c(N(COC(=O)C(C)(C)C)S(=O)(=O)C(F)(F)F)cc1N1CCC(OCC2CCC2)C1=O (stereo not shown) . Output its Ryegrass, Italian plant response rating only.
stdout: 0

stdin: // Input: "Cc1cc(C)c(N2CC/C(=N\O)C2=O)cc1NS(=O)(=O)C(F)(F)F" . Output its Ryegrass, Italian plant response rating only.
stdout: 80

stdin: // Input: "C=CCO/N=C1\CCN(c2cc(NS(=O)(=O)C(F)(F)F)c(C)cc2C)C1=O" . Output its Ryegrass, Italian plant response rating only.
stdout: 0

stdin: // Input: Cc1cc(C)c(N(C(=O)OC(C)C)S(=O)(=O)C(F)(F)F)cc1N1CCC(OC2CC2)C1=O (stereo not shown) . Output its Ryegrass, Italian plant response rating only.
stdout: 0

stdin: // Input: Cc1cc(C)c(N2CCC(OCC3CCCO3)C2=O)cc1NS(=O)(=O)C(F)(F)F (stereo not shown) . Output its Ryegrass, Italian plant response rating only.
stdout: 20

stdin: // Input: Cc1cc(C)c(N2CCC(OCC3CC3(F)F)C2=O)cc1NS(=O)(=O)C(F)(F)F (stereo not shown) . Output its Ryegrass, Italian plant response rating only.
stdout: 30

stdin: // Input: Cc1c(N2CCCC(OC3CC3)C2=O)cc(N(COC(=O)C(C)(C)C)S(=O)(=O)C(F)(F)F)c(C)c1F (stereo not shown) . Output its Ryegrass, Italian plant response rating only.
stdout: 0

stdin: // Input: Cc1c(NS(=O)(=O)C(F)(F)F)cc(N2CCC(OC3CCC3)C2=O)c(C)c1C (stereo not shown) . Output its Ryegrass, Italian plant response rating only.
stdout: 0

stdin: // Input: C#CC(C)OC1CCN(c2cc(NS(=O)(=O)C(F)(F)F)c(C)cc2C)C1=O (stereo not shown) . Output its Ryegrass, Italian plant response rating only.
stdout: 60

stdin: // Input: Cc1cc(C)c(N(C(=O)OCC(C)C)S(=O)(=O)C(F)(F)F)cc1N1CCC(OC2CC2)C1=O (stereo not shown) . Output its Ryegrass, Italian plant response rating only.
stdout: 50

stdin: // Input: Cc1c(N2CCC(OC3CCC3)C2=O)cc(N(C(=O)OCC(C)C)S(=O)(=O)C(F)(F)F)c(C)c1C (stereo not shown) . Output its Ryegrass, Italian plant response rating only.
stdout: 40

stdin: // Input: Cc1cc(C)c(N(COC(=O)C(C)(C)C)S(=O)(=O)C(F)(F)F)cc1N1CCC(OCC2CC(F)(F)C2)C1=O (stereo not shown) . Output its Ryegrass, Italian plant response rating only.
stdout: 0

stdin: // Input: Cc1c(N2CCC(OC3CC3)C2=O)cc(N(COC(=O)C(C)(C)C)S(=O)(=O)C(F)(F)F)c(C)c1C (stereo not shown) . Output its Ryegrass, Italian plant response rating only.
stdout: 50

* * *

System: soybean (Glycine max)
Test: Test C preemergence, soybean
Type: in vivo
Conditions: 31 g ai/ha Preemergence; 0 is no effect, 100 is complete control
Given measured Plant response rating (0 to 100 scale), Soybean, output criterion met if it is greater than or equal to 50 and criterion not met if not.

stdin: Plant response rating (0 to 100 scale), Soybean >= 50 for Cc1cc(C)c(N(COC(=O)C(C)(C)C)S(=O)(=O)C(F)(F)F)cc1N1CCC(OCC2CCC2)C1=O (stereo not shown) [Compound 56] ?
stdout: criterion not met

stdin: Plant response rating (0 to 100 scale), Soybean >= 50 for Cc1cc(C)c(N(COC(=O)C(C)(C)C)S(=O)(=O)C(F)(F)F)cc1N1CCC(OCC2CC2)C1=O (stereo not shown) [Compound 53] ?
stdout: criterion not met

stdin: Plant response rating (0 to 100 scale), Soybean >= 50 for CC(=O)N(c1cc(N2CCC(OC3CC3)C2=O)c(C)cc1Cl)S(=O)(=O)C(F)(F)F (stereo not shown) [Compound 38] ?
stdout: criterion met

stdin: Plant response rating (0 to 100 scale), Soybean >= 50 for Cc1c(N2CCC(OC3CCC3)C2=O)cc(N(COC(=O)C(C)(C)C)S(=O)(=O)C(F)(F)F)c(C)c1F (stereo not shown) [Compound 28] ?
stdout: criterion not met

stdin: Plant response rating (0 to 100 scale), Soybean >= 50 for C#CCO/N=C1\CCN(c2cc(NS(=O)(=O)C(F)(F)F)c(C)cc2C)C1=O [Compound 13] ?
stdout: criterion met

stdin: Plant response rating (0 to 100 scale), Soybean >= 50 for Cc1c(N2CCC(OC3CCC3)C2=O)cc(N(C(=O)OCC(C)C)S(=O)(=O)C(F)(F)F)c(C)c1C (stereo not shown) [Compound 48] ?
stdout: criterion not met
